System: iPS(Foreskin)-4-derived d8 HPTC-like cells
study.conditions: 1 μg/ml, overnight (16 h), qPCR, normalized to vehicle control (=1), mean +/- s.d., n=3
recorded.metric: IL8 Expression Levels

| compound | recorded.metric | quantitative.result |
| --- | --- | --- |
| CC(=O)[O-].CC(=O)[O-].[Pb+2] [Lead acetate] | IL8 Expression Levels | 0.4 |
| [K+].[K+].[O]=[Cr](=[O])([O-])[O][Cr](=[O])(=[O])[O-] [Potassium dichromate] | IL8 Expression Levels | 0.5 |
| [Bi+3].[Bi+3].[O-2].[O-2].[O-2] [Bismuth (III) oxide] | IL8 Expression Levels | 0.4 |
| [Cl][Au] [Gold (I) chloride] | IL8 Expression Levels | 0.9 |
| [Cl][Cd][Cl] [Cadmium chloride] | IL8 Expression Levels | 15.0 |
| O=[As]O[As]=O (stereo not drawn) [Arsenic (III) oxide] | IL8 Expression Levels | 1.2 |
